Tested on: Oryza sativa
Test: Test of plant growth inhibiting action on sprouted seeds grown 7 days in a dispersion of wettable powder, visual evaluation
Assay type: in vivo
Settings: 168 h, Concentration 20 ppm, 20% wettable powder dispersed in water, 25°C, lighted thermostat, visual grade 1-5, read-out: Growth Inhibition, Seed of Plant Oryza sativa (converted)
Description: Test Example (Test of Plant Growth Inhibiting Action) 50 parts of talc, 25 parts of bentonite, 2 parts of Sorpol-9047 (surface active agent manufactured by Toho Chemical Co., Ltd.) and 3 parts of Sorpol-5039 (same as above) were thoroughly mixed to form a carrier. 50 weight parts of test compound was mixed with 200 weight parts of the carrier to prepare a 20% wettable powder. […]
assay_metric: inhibition at 20 ppm (%)
Reply numerically in %, unit not repeated.

Illustrative cases are given below, each with its answer.
molecule C=C(COc1ccc(Cl)cc1C)C(=O)OC , inhibition at 20 ppm observed: 75

molecule C=C(CSc1ccccn1)C(=O)OC , inhibition at 20 ppm observed: 0

molecule C=C(COc1ccc(SC)cc1)C(=O)OC , inhibition at 20 ppm observed: 100

molecule C=C(CSc1ccc(OC)cc1)C(=O)OC , inhibition at 20 ppm observed: 100

New cases:
molecule C=C(CSCc1ccccc1)C(=O)OC , inhibition at 20 ppm observed: 100

molecule C=C(COc1ccc(Cl)cc1Cl)C(=O)OC , inhibition at 20 ppm observed: 75
